# Test system: PANC-1
# test details: Cytotoxicity against human PANC-1 cells assessed as reduction in cell viability measured after 72 hrs by SRB assay
# Type: functional, cell-based
# measurement parameters: PANC-1, 72 h
pIC50: −log10 of the molar value.
Catalogue of pIC50 readings, one per entry.

{"molecule": "O=c1c2ccccc2[nH]c2c([N+](=O)[O-])ccc(NCCCN3CCN(CCCNc4c5ccccc5nc5cccc([N+](=O)[O-])c45)CC3)c12", "pIC50": 7.25}
{"molecule": "Cc1ccc(NCCCN(C)CCCNc2c3ccccc3nc3cccc([N+](=O)[O-])c23)c2c(=O)c3ccccc3[nH]c12", "pIC50": 7.40}
{"molecule": "Cc1ccc([N+](=O)[O-])c2c(NCCCNCCNCCCNc3ccc([N+](=O)[O-])c4[nH]c5ccccc5c(=O)c34)c3ccccc3nc12", "pIC50": 6.85}
{"molecule": "NC(CCN1CCN(CCCNc2ccc3nnn4c5ccc(O)cc5c(=O)c2c34)CC1)c1ccc2nc3ccccc3cc2c1[N+](=O)[O-] (configuration not stated)", "pIC50": 7.44}
{"molecule": "Nc1ccn([C@@H]2O[C@H](CO)[C@@H](O)C2(F)F)c(=O)n1", "pIC50": 7.66}
{"molecule": "Cc1ccc(NCCCN2CCN(CCCNc3c4ccccc4nc4cccc([N+](=O)[O-])c34)CC2)c2c(=O)c3cc(O)ccc3[nH]c12", "pIC50": 7.57}
{"molecule": "O=c1c2cc(O)ccc2[nH]c2c([N+](=O)[O-])ccc(NCCCN3CCN(CCCNc4c5ccccc5nc5cccc([N+](=O)[O-])c45)CC3)c12", "pIC50": 7.37}

* * *

# System: DU-145
# test details: Cytotoxicity against human DU-145 cells assessed as reduction in cell viability measured after 72 hrs by SRB assay
# Type: functional, cell-based
# measurement parameters: DU-145, 72 h
pIC50: −log10 of the molar value.
Catalogue of pIC50 readings, one per entry.

{"molecule": "Cc1ccc([N+](=O)[O-])c2c(NCCCN(C)CCCNc3ccc(C)c4[nH]c5ccccc5c(=O)c34)c3ccccc3nc12", "pIC50": 6.72}
{"molecule": "Cc1ccc([N+](=O)[O-])c2c(NCCCN3CCN(CCCNc4ccc([N+](=O)[O-])c5[nH]c6ccc(O)cc6c(=O)c45)CC3)c3ccccc3nc12", "pIC50": 7.21}
{"molecule": "Cc1ccc(NCCCN2CCN(CCCNc3c4ccccc4nc4cccc([N+](=O)[O-])c34)CC2)c2c(=O)c3cc(O)ccc3[nH]c12", "pIC50": 7.70}
{"molecule": "Cc1ccc([N+](=O)[O-])c2c(NCCCNCCCNc3ccc([N+](=O)[O-])c4[nH]c5ccc(O)cc5c(=O)c34)c3ccccc3nc12", "pIC50": 7.11}
{"molecule": "O=c1c2ccccc2[nH]c2c([N+](=O)[O-])ccc(NCCCN3CCN(CCCNc4c5ccccc5nc5cccc([N+](=O)[O-])c45)CC3)c12", "pIC50": 7.96}
{"molecule": "Cc1ccc([N+](=O)[O-])c2c(NCCCNCCNCCCNc3ccc([N+](=O)[O-])c4[nH]c5ccccc5c(=O)c34)c3ccccc3nc12", "pIC50": 7.06}
{"molecule": "Cc1ccc([N+](=O)[O-])c2c(NCCCN3CCN(CCCNc4ccc5ncn6c7ccc(O)cc7c(=O)c4c56)CC3)c3ccccc3nc12", "pIC50": 7.17}
{"molecule": "COc1ccc2c(c1)c(=O)c1c(NCCCN3CCN(CCC(N)c4ccc5nc6ccccc6cc5c4[N+](=O)[O-])CC3)ccc3ncn2c31 (centres undefined)", "pIC50": 7.68}
{"molecule": "Cc1nc2ccc(NCCCN3CCN(CCC(N)c4ccc5nc6ccccc6cc5c4[N+](=O)[O-])CC3)c3c(=O)c4cc(O)ccc4n1c23 (centres undefined)", "pIC50": 7.62}
{"molecule": "Cc1ccc([N+](=O)[O-])c2c(NCCCNCCCNc3ccc(C)c4[nH]c5ccccc5c(=O)c34)c3ccccc3nc12", "pIC50": 6.89}
{"molecule": "NC(CCN1CCN(CCCNc2ccc3nnn4c5ccccc5c(=O)c2c34)CC1)c1ccc2nc3ccccc3cc2c1[N+](=O)[O-] (centres undefined)", "pIC50": 7.66}
{"molecule": "NC(CCN1CCN(CCCNc2ccc3nnn4c5ccc(O)cc5c(=O)c2c34)CC1)c1ccc2nc3ccccc3cc2c1[N+](=O)[O-] (centres undefined)", "pIC50": 7.77}
{"molecule": "Cc1ccc(NCCCN(C)CCCNc2c3ccccc3nc3cccc([N+](=O)[O-])c23)c2c(=O)c3ccccc3[nH]c12", "pIC50": 7.60}
{"molecule": "Cc1cc(C(N)CCN2CCN(CCCNc3ccc4ncn5c6ccccc6c(=O)c3c45)CC2)c([N+](=O)[O-])c2cc3ccccc3nc12 (centres undefined)", "pIC50": 7.21}
